# target.of.assay: T1, FX zymogen (UniProt P00742 41-179; P00742 183-488)
# T1 chain 1: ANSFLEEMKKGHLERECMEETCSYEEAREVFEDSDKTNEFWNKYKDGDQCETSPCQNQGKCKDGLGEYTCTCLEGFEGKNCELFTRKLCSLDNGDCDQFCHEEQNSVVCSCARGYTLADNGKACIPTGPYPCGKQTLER
# T1 chain 2: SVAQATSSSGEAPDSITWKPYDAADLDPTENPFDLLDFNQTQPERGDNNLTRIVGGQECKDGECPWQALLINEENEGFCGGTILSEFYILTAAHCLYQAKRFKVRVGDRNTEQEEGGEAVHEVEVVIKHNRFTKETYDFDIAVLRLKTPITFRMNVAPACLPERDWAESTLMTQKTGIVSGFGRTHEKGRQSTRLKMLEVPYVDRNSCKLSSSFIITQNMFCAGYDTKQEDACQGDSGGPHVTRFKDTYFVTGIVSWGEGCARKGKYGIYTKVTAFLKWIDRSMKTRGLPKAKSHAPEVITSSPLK
# experiment: BLI
property: Kd

BIIB-12-1318 (antibody, V domains shown) VH: QVQLVESGGGVVQPGRSLRLSCAASGFTFSSYGMHWVRQAPGKGLEWVAVISYDGSNKYYADSVKGRFTISRDNSKNTLYLQMNSLRAEDTAVYYCARKGDYRSGSYSGRAFGIWGQGTMVTVSS VL: EIVLTQSPATLSLSPGERATLSCRASQSVSSYLAWYQQKPGQAPRLLIYDASNRATGIPARFSGSGSGTDFTLTISSLEPEDFAVYYCQQLNNWPPTFGGGTKVEIK = 56.1 nM
BIIB-12-1329 (antibody, V domains shown) VH: QVQLVESGGGVVQPGRSLRLSCAASGFTFSSYGMHWVRQAPGKGLEWVAVISYDGSNKYYADSVKGRFTISRDNSKNTLYLQMNSLRAEDTAVYYCARGGAGSRYFQHWGQGTLVTVSS VL: EIVMTQSPATKSVSPGERATLSCRASQSVSSNLAWYQQKPGQAPRLLIYSASTRATGIPARFSGSGSGTEFTLTISSLQSEDFAVYYCQQVFNWPPTFGGGTKVKIK = 48.5 nM
BIIB-12-897 (antibody, V domains shown) VH: QLQLQESGPGLVKPSETLSLTCTVSGGSISSSSYYWGWIRQPPGKGLEWIGSIYYSGSTYYNPSLKSRVTISVDTSKNQFSLKLSSVTAADTAVYYCAREGRTYYGGWFDPWGQGTLVTVSS VL: EIVLTQSPGTLSLSPGERATLSCRASQSVSSSYLAWYQQKPGQAPRLLIYGASSRATGIPDRFSGSGSGTDFTLTISRLEPEDFAVYYCQQDGNYPYTFGGGTKVEIK = 68 nM
